- Test system: Vero
- procedure.details: Cytotoxicity against African green monkey Vero cells assessed as reduction in cell viability after 6 days by trypan blue exclusion assay
- Type: cell-based
- assay.context: chlorocebus sabaeus, vero, 144 h
Assign CC50 to each entry below.

QUERY: Given the compound Nc1ccn([C@@H]2O[C@H](CO)C(O)C2(Br)Br)c(=O)n1 (single isomer, unassigned) , what is its reported CC50?
RESULT: > 100 µM

QUERY: Given the compound "CC(C)OC(=O)[C@H](C)N[P@](=O)(OC[C@H]1O[C@@H](n2cnc3c(=O)[nH]c(N)nc32)C(Br)(Br)[C@@H]1O)Oc1ccccc1" , what is its reported CC50?
RESULT: > 100 µM

QUERY: Given the compound Nc1ncnc2c1ncn2[C@@H]1O[C@H](CO)C(O)C1(Br)Br (single isomer, unassigned) , what is its reported CC50?
RESULT: > 100 µM

QUERY: Given the compound "CC(C)OC(=O)[C@H](C)N[P@](=O)(OC[C@H]1O[C@@H](n2cnc3c(N)ncnc32)C(Br)(Br)[C@@H]1O)Oc1ccccc1" , what is its reported CC50?
RESULT: 60 µM
